Source listed as patent US10144715B2.

For each entry below, report its Cell LXRβ efficacy value.
target: Gal4 DNA binding domain fused to the LBD of LXRβ in HEK293 cells (Homo sapiens (Human), UniProt P55055); assay: cell-based; format: cell-based
Sequence (P55055 222-460 limits assumed): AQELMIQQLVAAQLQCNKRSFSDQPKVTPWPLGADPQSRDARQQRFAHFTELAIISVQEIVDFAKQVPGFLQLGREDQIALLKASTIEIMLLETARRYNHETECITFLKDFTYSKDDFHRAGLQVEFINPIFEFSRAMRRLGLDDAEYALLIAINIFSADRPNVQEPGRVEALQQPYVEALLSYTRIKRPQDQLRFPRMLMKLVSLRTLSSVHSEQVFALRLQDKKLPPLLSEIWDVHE

Cc1ccc(CN2CCN(c3cccc(S(C)(=O)=O)c3)C[C@@H]2c2ccccc2)cc1 (single isomer, unassigned) [46-6]; 148 (106) %
CC(C)[C@@H]1CN(c2ccc(F)c(S(C)(=O)=O)c2Cl)CCN1c1ncc(Cl)c(C2CC2)n1 [Cpd No 22-2]; 2144 (96) %
CC(C)c1ccc(CN2CCN(c3cccc(S(C)(=O)=O)c3)C[C@@H]2c2ccccc2)cc1 [46-8]; 1421 (96) %

// next item, Cell LXRβ efficacy requested
Exam item: What does the record list as Cell LXRβ efficacy for CC(C)[C@@H]1CN(c2ccc(F)c(S(C)(=O)=O)c2)CCN1c1ncc(C(=O)N(C)C)c(C(F)(F)F)n1 [Cpd No 17-1] ?
Marked response: 667 (84) %
